tested-target: human Dopamine D2L receptor (Homo sapiens, UniProt P14416)
Construct: expressed in transfected cells; host or cells: CHO cells
Sequence (P14416 whole entry): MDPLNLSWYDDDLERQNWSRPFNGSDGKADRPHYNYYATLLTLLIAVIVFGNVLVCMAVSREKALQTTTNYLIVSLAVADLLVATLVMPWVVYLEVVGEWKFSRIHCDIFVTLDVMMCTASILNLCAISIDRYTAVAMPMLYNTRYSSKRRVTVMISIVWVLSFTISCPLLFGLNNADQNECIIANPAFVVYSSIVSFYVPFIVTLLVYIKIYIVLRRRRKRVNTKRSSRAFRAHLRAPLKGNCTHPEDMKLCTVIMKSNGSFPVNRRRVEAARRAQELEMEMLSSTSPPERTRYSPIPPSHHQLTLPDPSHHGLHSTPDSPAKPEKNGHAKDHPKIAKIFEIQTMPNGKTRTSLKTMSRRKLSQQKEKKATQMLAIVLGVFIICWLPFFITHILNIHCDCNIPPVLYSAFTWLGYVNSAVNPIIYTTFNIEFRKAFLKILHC
test-protocol: In vitro binding affinity for human D2L receptor ([3H]Spiperone)
experimental-setup: membranes of human D2L receptor-transfected CHO cells, read-out: D2 (pIC50) (converted)
parameter: IC50 (nM)

INSERT INTO measurements (compound, parameter, number) VALUES
  ('CCOC(=O)c1cc2c(s1)Sc1ccccc1C1CC(CN(C)C)OC21 (stereo not shown)', 'IC50', 3980),
  ('OCCN1CCN(C[C@H]2C[C@@H]3c4ccccc4Sc4sccc4[C@H]3O2)CC1 (relative stereo)', 'IC50', 251),
  ('CNCC1CC2c3ccccc3N(Cc3ccccc3)c3ncccc3C2O1 (stereo not shown) [Compound 36]', 'IC50', 6310),
  ('CN(CCO)CC1CC2c3ccccc3Sc3sccc3C2O1 (racemic)', 'IC50', 200);
